# ASSAY EXPLANATION: protein stability index of a GFP-peptide fusion (yeast GPS) (PSI 1-4); higher = more stable; sorted into four equal gates, so the index is relative within each strain
# CONDITION LABEL: ubr1∆
Response key: 1.0 means protein stability index >= 3; 0.0 means protein stability index < 3.

In plain terms: is recorded protein stability index at least 3 for TVTSLDVVYALKRQGRT [HHF1] ?
0.0

AAEQQSKAFKESSDFGA [SRP54] , same question.
0.0

Here is the next sequence: LFSLLELGEQKCQELVT [RRP46]
0.0

Another sequence: SYNWGAKAKRRHTTGTG [RPL37A]
1.0

Queued: LAKKIAPGKVELAINLI [SMC2]
0.0

Thanks! And NILWRIADKTTYDKETI [SIR4] ?
1.0

Could you do the same for ADILCPLLESFITFSLD [IRR1] , please?
0.0

Consider next the sequence KTDFAKIINKPNELSQI [RPC82] in the same way.
1.0

Subsequent entry: VKAFLSIFEDAIKELNY [NUT1]
0.0

Next entry: LQYIIHDTLNNEIANSI [BRR2]
0.0

Check AIRRDARYNWICNPVHK [RPL15B] too.
1.0

Another sequence to check: ILPTDGSAEFNVKYRAV [RPB7]
1.0

Next record, please: MAKQLIRLANESSELNK [CSN12]
0.0

Follow-up entry: NFIEPGINQILGNEKNQ [CDC53]
0.0

Moving on to the next sequence: NGKDNNNESNKNNNGDE [MED2]
1.0

// next record RQREMAEEQTKLQSQSL [YLR018C/POM34]
1.0

Also AAAQAQSKIDLTKKKNE [SEM1] , if possible.
0.0

Next record, please: YGFEDESAPITAEDSWA [RPB2]
1.0

And what about the sequence ITRSVMRFNIEIIADWI [BRR2] ?
1.0

Then what about the sequence TEEVEALLQRLKTNGKQ [MTW1] ?
1.0

Similarly, MRRFILGTTEGDIKVLD [RPN14] ?
0.0

What would you report for PVSLLNSQLVGKPHFSL [PCI8] ?
0.0

What do we get for YIFCISRTIGMVVNGPI [SCL1] ?
0.0

Next entry: FIMVKGCIPGNRKRIVT [RPL3]
0.0

Request: QKNMNDLLRSQLTSLEK [YIL149C/MLP2]
0.0

Try RQPSLHKMSMMAHRVKV [RPO21] next.
0.0
